# experimentalDetails: High Content Assay for Compounds that inhibit the Assembly of the Perinucleolar Compartment;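 further: plate controls were DMSO wells for no effect and camptothecin positive control wells for full effect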
# runConditions: PC3M PTB-GFP, PNC prevalence imaging, 16 h; at 10 µM; stronger effect = lower value
The campaign covered roughly 140,000 compounds. About 4,300 (3.1%) were called active. Another 21% or so got no clear call; they are omitted. Shown is part of a subset that was picked to be rich in actives.
Entries and their activity change (PNC), negative = inhibition
endpointLabel: activity change (PNC), negative = inhibition (%)

molecule | numericReadout
CCOc1ccccc1C1C(C(=O)OC)=CN(C)C=C1C(=O)OC | 3.14
CCOC(=O)C(C)Sc1nnc(CSc2nc3nc(C)cc(C)n3n2)o1 (stereo not given) | -12
NS(=O)(=O)c1ccc(NC(=O)COC(=O)C2(c3ccc(F)cc3)CCCC2)cc1 | 50
C=CCn1c(SCc2ccc(Cl)c(Cl)c2)nnc1C(CO)NC(=O)c1ccc(OC)cc1 (stereo not given) | -102
C=CCn1c(SCC(=O)c2ccc(Br)cc2)nnc1C(C)NC(=O)Cc1ccc(OC)cc1 (stereo not given) | 11.4
